Some compounds, each annotated with its measured growth.
- Test system: SF-539 CNS
- assayOverview: NCI-60 one-dose screen, 48 h (100 = growth as untreated, 0 = no growth, -100 = all killed)
- conditionSet: 10 µM unless noted
- Procedure: Cells are grown in 96 well plates and exposed to the test compound for 48 hours. Compounds are tested at a single concentration, which is 10^-5 M for most compounds. The reported endpoint is percent growth (GI% or GIPRCNT), where numbers from 0 - 100% represent growth inhibition, and numbers from -100% - 0 represent cell death. For example, a value of 40 represents 60% growth inhibition. A value of 0 means no net growth occurred over the course of the experiment. […]
The panel holds about 83,000 compounds, 20% with a hit somewhere; the sample as a whole holds those more often.
Entry rule: numbers only, all in %.

CCN(CC)CCN1C(=O)c2c(c(C)c3c(oc4cc(O)ccc43)c2C)C1=O
90.8
COc1cc(/C=C/C(=O)c2cccc(-n3cc(-c4ccccc4)[nH]c3=O)c2)ccc1O
85.7
Cc1ccc(-c2cc(-c3ccccc3C)[nH]c(=O)c2C#N)s1
91.5
C=CCn1c(C)nc2cc(Nc3nc(Cl)nc4ccccc34)ccc21
97.4
CC(C)(C)c1ccc(/C=C/C(=O)Nc2ccc(O)cc2)cc1
40.6

Supply growth value. Item: "O=C(Nc1cccc(Oc2nnc(Cl)c3ccccc23)c1)Nc1ccc(Cl)c(C(F)(F)F)c1"
-73.4

Supply growth value. Item: "COc1ccc(-c2csc(C3=C(O)CN(CCCN4CCCC4=O)C3=N)n2)cc1OC"
90.1

Supply growth value. Item: "CCCCCCCCn1ccc2cc(NC(=O)Cn3cc(CN4CCCC4)nn3)ccc21"
78.9

Supply growth value. Item: "CCN(CC)Cc1cccc(C(=O)OC)c1"
94

Supply growth value. Item: "O=[N+]([O-])c1ccc(Sc2cccc[n+]2[O-])c2nonc12"
93.6

----------
- System: SN12C renal
- assayOverview: NCI-60 one-dose screen, 48 h
- conditionSet: 10 µM unless noted
Compounds without any hit were thinned out: in the full panel of roughly 83,000, 20% have a hit. Calls of active or inactive are those of the source. Rule for the calls: active = growth percent below 10; inactive = the rest.
Assign a class; possible classes are y = active, n = inactive

For orientation, consider the following solved cases.
O=C1/C(=C2/C=Nc3ccccc32)N(O)c2ccccc21
n
CCc1c2c(nc3ccc(OC(=O)OCc4ccc(B5OC(C)(C)C(C)(C)O5)cc4)cc13)-c1cc3c(c(=O)n1C2)COC(=O)[C@]3(O)CC
y
CC(=O)OC[C@H]1OC(Sc2sc(C(=O)c3ccc(Br)cc3)c(N)c2-c2nc3ccccc3s2)[C@H](OC(C)=O)[C@@H](OC(C)=O)[C@@H]1OC(C)=O (some centres undefined)
n

Now look at this entry.
Status in this test for "CC(=O)c1ccc(NCC(=O)Nc2ccccn2)cc1" ?
n

----------
- Tested on: SN12C renal
- assayOverview: NCI-60 one-dose screen, 48 h (100 = growth as untreated, 0 = no growth, -100 = all killed)
- conditionSet: 10 µM unless noted
Compounds without any hit were thinned out: in the full panel of roughly 83,000, 20% have a hit.
readoutLabel: growth (%)
Entry rule: numbers only, all in %.

N#Cc1c(-c2cccc(Cl)c2)cc(-c2cccc(Cl)c2)[nH]c1=O
82.8
O=C(N/N=C/C=C/c1ccc([N+](=O)[O-])o1)c1cc2ccccc2cc1O
-10.7
Cn1c(-c2c(N)n(Cc3ccc(C(F)(F)F)cc3)c3nc(C#N)c(C#N)nc23)nc2ccccc21
14.4
CC1=CN2C(=O)C3C4=C(CCCC4)SC3N=C2CN1c1c(C)cccc1C (stereo not drawn)
99.6
C[C@@]1(CCC#N)[C@H]2CC[C@@H]3[C@H]4[C@H](C(=O)/C=C/c5cccnc5)CC[C@]4(C#N)CC[C@@]3(C)[C@]2(C)CC[C@H]1C(=O)/C=C/c1cccnc1
65.4
COc1ccc(/C=c2\nc3n(-c4ccccc4)c4nc5c6c(sc5c(=N)n4n-3c2=O)CCCC6)cc1
86.4
CC1O[C@@H](OC2[C@H](OC(=O)/C=C/c3ccc(O)c(O)c3)C(COC3O[C@H](C)C(O)C(O)[C@@H]3O)O[C@@H](OCCc3ccc(O)c(O)c3)[C@H]2O)[C@@H](O)C(O)[C@H]1O (stereo partly drawn)
106
Cc1occc1-c1n[nH]c(=S)n1N1C(=O)CSC1=S
99.2

Supply growth value. Item: "COc1ccc(-c2csc(C3=C(O)CN(CCCN4CCCC4=O)C3=N)n2)cc1OC"
105

Supply growth value. Item: "Cc1ccc(CCC(=O)Nc2ncc(Cc3cc(Cl)ccc3Cl)s2)o1"
23.4

----------
- Tested on: U251 CNS
- assayOverview: NCI-60 one-dose screen, 48 h (100 = growth as untreated, 0 = no growth, -100 = all killed)
- conditionSet: 10 µM unless noted
The panel holds about 83,000 compounds, 20% with a hit somewhere; the sample as a whole holds those more often.
Some molecules, each annotated with its measured growth.
Entry rule: numbers only, all in %.

Known results for molecules:
COc1cccc(-c2nn(-c3ccccc3)cc2-c2ccnc(NCCNC(=O)Nc3ccccc3)c2)c1
36.8
CC(C)C(NC(=O)C1(NC(=O)OCc2ccccc2)CCCC1)C(=O)O (centres undefined)
86.7
Nc1cc2c3c(cccc3c1)C(=O)N(CCN1CCCC1)C2=O
28.9

Moving on to the next molecule.
Recall the reported growth of "COc1ccc(/C=N\NC(=O)c2cc(-c3ccc(Br)cc3)n(-c3ccc(S(N)(=O)=O)cc3)n2)cc1" on U251 CNS and write it down.
51.3

----------
- Test system: HOP-62 NSCLC
- assayOverview: NCI-60 one-dose screen, 48 h
- conditionSet: 10 µM unless noted
Compounds without any hit were thinned out: in the full panel of roughly 83,000, 20% have a hit. Activity calls are given as the source filed them. Rule for the calls: active = growth percent below 10; inactive = the rest.
Assign a class; possible classes are yes (1) for active, no (0) for inactive

Cc1c(C(=O)N[C@@H](Cc2ccccc2)C(=O)C(=O)NCCc2ccccc2)[nH]c2ccccc2c1=O
no (0)
O=C(NCCCNc1cc(-c2cn(-c3ccccc3)nc2-c2cccc(O)c2)ccn1)c1cccc(O)c1
no (0)
CCCCn1c(=O)c2c(nc(NCCc3ccc(O)c(O)c3)n2CCC)n(CCCC)c1=O
no (0)
Cc1nc2ccccc2c(/C=C/c2ccc(Cl)cc2)c1C(=O)/C=C/c1ccc(F)cc1
yes (1)
O=c1oc2ccccc2c(Cl)c1Cl
no (0)

Status in this test for "COc1cccc(-c2nc3sccn3c2-c2ccnc(NCCNS(=O)(=O)c3ccc(C(F)(F)F)cc3)c2)c1" ?
no (0)

Status in this test for "COc1cc(/C=C2\C(=O)ON=C2C)cc(OC)c1OC" ?
no (0)

Status in this test for "N#Cc1c(-c2cccc(Cl)c2)cc(-c2cccc(Cl)c2)[nH]c1=O" ?
no (0)

Status in this test for Cc1ccc(-n2nc3c(c(C#N)c2=O)CC(c2ccccc2Cl)C([N+](=O)[O-])=C3O)cc1 (stereo not drawn) ?
no (0)

Status in this test for "Cc1c(C)c2c(c(C)c1OCC(=O)O)CC[C@@](C)(CCC[C@@H](C)CCC[C@@H](C)CCCC(C)C)O2" ?
yes (1)

Status in this test for COc1cccc2c1C(=O)c1c(O)c3c(c(O)c1C2=O)CC(O)(/C(C)=N/NC(=O)CCCCC(=O)N/N=C(\C)C1(O)Cc2c(O)c4c(c(O)c2C(OC2CC(N)C(O)C(C)O2)C1)C(=O)c1c(OC)cccc1C4=O)CC3OC1CC(N)C(O)C(C)O1 (stereo not drawn) ?
yes (1)

Status in this test for "COc1cccc(-c2nn(-c3ccccc3)cc2-c2ccnc(NCCCNC(=O)c3ccccc3)c2)c1" ?
no (0)

Status in this test for "CCn1c(C)nc2cc(C(N)=O)ccc21" ?
no (0)

Status in this test for "O=C(c1ccccc1)c1c(/C=C/c2ccccc2)nc2ccccc2c1/C=C/c1ccc(Br)cc1" ?
no (0)

Status in this test for COc1ccc(C2C(c3nn[nH]n3)=C(N)Oc3c2ccc2ccccc32)cc1 (stereo not drawn) ?
no (0)

Status in this test for "COC(=O)/C=C1\S/C(=N\NS(=O)(=O)c2ccc(C)cc2)N(c2ccccc2)C1=O" ?
no (0)

Status in this test for CC(CCc1ccc(Cl)c(Cl)c1)NCc1ccc(C(C)(C)C)cc1 (stereo not drawn) ?
no (0)

Status in this test for "Cc1nn(-c2ccccc2)c(Cl)c1/C=C(/NC(=O)c1ccccc1)c1nc2ccccc2[nH]1" ?
no (0)

----------
- System: HT29 colon
- assayOverview: NCI-60 one-dose screen, 48 h
- conditionSet: 10 µM unless noted
- Method: Growth inhibition of the HT29 human tumor cell line is measured as a screen for anti-cancer activity. Cells are grown in 96 well plates and exposed to the test compound for 48 hours. Compounds are tested at a single concentration, which is 10^-5 M for most compounds. The reported endpoint is percent growth (GI% or GIPRCNT), where numbers from 0 - 100% represent growth inhibition, and numbers from -100% - 0 represent cell death. For example, a value of 40 represents 60% growth inhibition. […]
The panel holds about 83,000 compounds, 20% with a hit somewhere; the sample as a whole holds those more often. Activity calls are given as the source filed them. Rule for the calls: active = growth percent below 10; inactive = the rest.
Assign a class; possible classes are active, inactive

For orientation, consider the following solved cases.
CNC(=O)c1cc(Oc2ccc3nc(Nc4ccc(Cl)c(C(F)(F)F)c4)ccc3c2)ccn1
inactive
N=C1C(c2nc(-c3ccc(Br)cc3)cs2)=C(O)CN1Cc1cccnc1
inactive
O=C(Nc1cccc(Oc2nnc(Cl)c3ccccc23)c1)Nc1ccc(Cl)c(C(F)(F)F)c1
active
COC(=O)[C@]12CC[C@@H](C)[C@H](C)[C@@H]1C1=CC[C@@H]3[C@@]4(C)C(C=O)=C[C@@](C)(COS(C)(=O)=O)[C@@H]4C(=O)C[C@@]3(C)[C@]1(C)CC2
inactive

Status in this test for CC(=O)n1c(-c2ccc(Cl)cc2)nc2c(c1=O)C(c1ccc(Cl)cc1)c1sc3c(Cl)cccc3c1O2 (centres undefined) ?
active

Status in this test for "Cc1nc2ccccc2c(/C=C/c2ccc(Cl)cc2)c1C(=O)/C=C/c1ccc(F)cc1" ?
active

Status in this test for "Cc1ccc(Nc2nc(N)nc(CSCC(=O)NN)n2)cc1" ?
inactive

Status in this test for "CCCc1cc2c(=O)c(C(=O)OC)c[nH]c2cc1N(CC)CC" ?
inactive

Status in this test for CCC1(C2CCCC2)NC(=O)NC1=O (centres undefined) ?
inactive

Status in this test for "COc1ccc(N2CCN(c3nc(-c4cc(OC)c(OC)c(OC)c4)nc4ccccc34)CC2)cc1" ?
inactive
